assay: Permeability from basolateral to apical side of MDCK cells; format: ADME, cell-based, Canis lupus familiaris; conditions: dog, read-out: permeability
Parameter: Papp B→A (×10⁻⁶ cm/s)
// note: answer is a bare numeric in ×10⁻⁶ cm/s

Problem: Which Papp B→A is reported for this molecule? Cc1cc(Cl)cc(OCCn2cc(F)cn2)c1-c1nc(N)nc2c1CN(C(=O)NCC(C)(F)F)C2
Solution: 11

###

experiment: Toxicity in human A2058 cells xenografted po dosed nu/nu athymic mouse; type: organism-based; details: in vivo
Parameter: MTD
Report field: quantity (unit follows the number).

Problem: Look at this molecule and give its reported MTD. CO[C@H]1/C=C\C=C(/C)C(=O)NC2=CC(=O)C(NCCN(C)C)=C(C[C@@H](C)C[C@H](OC)[C@H](O)[C@@H](C)/C=C(\C)[C@@H]1OC(N)=O)C2=O
Solution: 10 mg/kg

###

assay: Oral bioavailability in Han Wistar rat at 10 mg/kg administered as solution in 40% PEG400 in saline; type: ADME, organism-based; conditions: in vivo
Parameter: bioavailability (%)
Field format: number, assumed %, no unit text.

Problem: Please give the measured bioavailability for this molecule: Cc1cc(Cl)cc(OCCn2cc(F)cn2)c1-c1nc(N)nc2c1CN(C(=O)NCC(C)(F)F)C2
Solution: 19
